- Target system: COX-2 (Homo sapiens, UniProt P35354)
- Sequence (P35354 18-604): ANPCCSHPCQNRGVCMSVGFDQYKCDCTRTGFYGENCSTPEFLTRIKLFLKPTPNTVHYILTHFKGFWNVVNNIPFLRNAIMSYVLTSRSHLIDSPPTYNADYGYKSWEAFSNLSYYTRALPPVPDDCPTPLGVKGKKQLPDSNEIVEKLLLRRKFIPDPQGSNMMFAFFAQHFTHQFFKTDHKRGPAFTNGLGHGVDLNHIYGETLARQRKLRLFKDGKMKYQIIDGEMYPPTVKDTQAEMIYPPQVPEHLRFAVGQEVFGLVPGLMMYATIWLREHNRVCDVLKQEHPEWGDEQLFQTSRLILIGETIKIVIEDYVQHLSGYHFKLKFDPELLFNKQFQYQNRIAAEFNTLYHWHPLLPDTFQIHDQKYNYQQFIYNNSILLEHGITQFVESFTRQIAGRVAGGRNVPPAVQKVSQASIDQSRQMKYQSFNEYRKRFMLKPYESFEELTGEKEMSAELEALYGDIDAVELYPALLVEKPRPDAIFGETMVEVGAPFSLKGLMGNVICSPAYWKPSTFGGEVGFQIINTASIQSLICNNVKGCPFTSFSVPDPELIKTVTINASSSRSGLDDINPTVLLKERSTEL
- Method notes: In vitro COX inhibitory assay
- Assay type: biochemical
- Conditions used: read-out: Inhibition of COX-2 (%)
Quantity measured: inhibition at 150 µg/mL (%)

| Compound | Value units | Endpoint result |
| --- | --- | --- |
| NC1=NC(c2ccccc2O)n2nc(C(=O)Nc3ccc(S(N)(=O)=O)cc3)nc2N1 (centres unmarked) | % | 99 |
| NC1=NC(c2ccco2)n2nc(C(=O)Nc3ccc(S(N)(=O)=O)cc3)nc2N1 (centres unmarked) | % | 98.9 |
| NC1=NC(c2ccccc2Cl)n2nc(C(=O)Nc3ccc(S(N)(=O)=O)cc3)nc2N1 (centres unmarked) | % | 71.6 |
| Cc1ccccc1C1N=C(N)Nc2nc(C(=O)Nc3ccc(S(N)(=O)=O)cc3)nn21 (centres unmarked) | % | 75.3 |
| CN(C)c1ccc(C2N=C(N)Nc3nc(C(=O)Nc4ccc(S(N)(=O)=O)cc4)nn32)cc1 (centres unmarked) | % | 98.4 |
